system: E. cloacae A9656
Below, each entry is listed alongside its reported MIC.
Response body: numeric value in µg/mL, unit text excluded.

Solved cases (4 shown):
# compound, unit tag, MIC
rows = [
    ("CCN1CCN(C(=O)N[C@@H](C(=O)N[C@@H]2C(=O)N3[C@@H]2SC(C)(C)[C@@H]3C(=O)O)c2ccc(O)c(O)c2)C(=O)C1=O", "µg/mL", 1.6),
    ("CCN1CCN(C(=O)NC(C(=O)N[C@@H]2C(=O)N3[C@@H]2SC(C)(C)[C@@H]3C(=O)O)c2ccc(O)c(O)c2)C(=O)C1=O (mixture of isomers)", "µg/mL", 1.6),
    ("CCN1CCN(C(=O)N[C@H](C(=O)N[C@@H]2C(=O)N3[C@@H]2SC(C)(C)[C@@H]3C(=O)O)c2ccc(O)c(O)c2)C(=O)C1=O", "µg/mL", 12.5),
    ("CCN1CCN(C(=O)N[C@@H](C(=O)N[C@@H]2C(=O)N3[C@@H]2SC(C)(C)[C@@H]3C(=O)O)c2ccccc2)C(=O)C1=O [piperacillin, reference compound]", "µg/mL", 1.6),
]

What value of MIC on E. cloacae A9656 does CC1(C)S[C@@H]2[C@H](NC(=O)C(C(=O)O)c3ccccc3)C(=O)N2[C@H]1C(=O)O (some centres unmarked) [carbenicillin, reference compound] have? 1.6

----------
Each entry below carries its measured MIC, system: S. aureus Smith.
Report the value in µg/mL with no unit label.

For orientation, consider the following solved cases.
# molecule, test system, unit tag, MIC
rows = [
    ("CCN1CCN(C(=O)N[C@@H](C(=O)N[C@@H]2C(=O)N3[C@@H]2SC(C)(C)[C@@H]3C(=O)O)c2ccc(O)c(O)c2)C(=O)C1=O [BB-P 661]", "S. aureus Smith", "µg/mL", 6.3),
    ("CC1(C)S[C@@H]2[C@H](NC(=O)C(C(=O)O)c3ccccc3)C(=O)N2[C@H]1C(=O)O (some centres unmarked) [carbenicillin, reference compound]", "S. aureus Smith", "µg/mL", 0.2),
    ("CCN1CCN(C(=O)NC(C(=O)N[C@@H]2C(=O)N3[C@@H]2SC(C)(C)[C@@H]3C(=O)O)c2ccc(O)c(O)c2)C(=O)C1=O (mixture of isomers) [BB-P 652]", "S. aureus Smith", "µg/mL", 6.3),
    ("CCN1CCN(C(=O)N[C@@H](C(=O)N[C@@H]2C(=O)N3[C@@H]2SC(C)(C)[C@@H]3C(=O)O)c2ccccc2)C(=O)C1=O [piperacillin, reference compound]", "S. aureus Smith", "µg/mL", 0.8),
]

Look up MIC: CCN1CCN(C(=O)N[C@H](C(=O)N[C@@H]2C(=O)N3[C@@H]2SC(C)(C)[C@@H]3C(=O)O)c2ccc(O)c(O)c2)C(=O)C1=O [BB-P 660] 6.3

----------
Below, each of the molecules is paired with its reported ED50 value.
system: E. coli Juhl; assay: PD50 (mice, im); format: in vivo; conditions: Escherichia coli
The answer should read as a number with its unit following.

# molecule, result
rows = [
    ("CCN1CCN(C(=O)NC(C(=O)N[C@@H]2C(=O)N3[C@@H]2SC(C)(C)[C@@H]3C(=O)O)c2ccc(O)c(O)c2)C(=O)C1=O (mixture of isomers)", "1.8 mg/kg"),
]

Given the molecule CCN1CCN(C(=O)N[C@@H](C(=O)N[C@@H]2C(=O)N3[C@@H]2SC(C)(C)[C@@H]3C(=O)O)c2ccccc2)C(=O)C1=O [piperacillin, reference compound] , what is its reported ED50? 3.3 mg/kg

Recorded ED50 of `CCN1CCN(C(=O)N[C@@H](C(=O)N[C@@H]2C(=O)N3[C@@H]2SC(C)(C)[C@@H]3C(=O)O)c2ccc(O)c(O)c2)C(=O)C1=O` , please. 1.8 mg/kg

Fill blank: measured ED50 of the molecule `CCN1CCN(C(=O)N[C@H](C(=O)N[C@@H]2C(=O)N3[C@@H]2SC(C)(C)[C@@H]3C(=O)O)c2ccc(O)c(O)c2)C(=O)C1=O` is ____. 7.2 mg/kg

Values from patent US4206116A
